# MEASURED_TARGET: human MC4R receptor (human, UniProt P32245 1-332)
# Sequence (P32245 whole entry): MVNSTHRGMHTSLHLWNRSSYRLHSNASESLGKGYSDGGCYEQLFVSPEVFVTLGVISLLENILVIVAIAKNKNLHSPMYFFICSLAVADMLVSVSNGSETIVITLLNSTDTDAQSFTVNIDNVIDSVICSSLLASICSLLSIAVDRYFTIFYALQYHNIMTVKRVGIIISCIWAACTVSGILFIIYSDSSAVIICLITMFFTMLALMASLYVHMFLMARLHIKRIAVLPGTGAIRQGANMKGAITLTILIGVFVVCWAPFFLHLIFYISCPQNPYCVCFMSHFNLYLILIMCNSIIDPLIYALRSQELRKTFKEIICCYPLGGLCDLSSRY
# ASSAY_NOTES: cell-based or functional assay
Starred links: 1 amine or outer side, 2 acyl side, 3 side chain; linkers in the order of their positions; H or OH if unused. Positions of bridges follow the written chain, without caps; N, C: chain ends. Non-standard residues stand in square brackets, D forms with d. Primed or numbered codes have the meaning given here. dTyr(4-OMe)″ = O-methyl-D-tyrosine, COc1ccc(C[C@@H](N[*:1])C(=O)[*:2])cc1; Cit = NC(=O)NCCC[C@H](N)C(=O)O; Aib = CC(C)(N)C(=O)O
Rule for this label: Yes means MC4R selectivity vs MC3R is less than 6; No means MC4R selectivity vs MC3R is at least 6.

Qu. Field: below-cutoff. Rule: recorded MC4R selectivity vs MC3R strictly less than 6. Subject: Ac-RC[Aib][Cit][dTyr(4-OMe)″]RFC-NH2 (disulfide 2-8) [CTX-1299]
Ans. No
